tested_on: QPCT (Homo sapiens, UniProt Q16769)
Construct: purchased Origine (OriGene) TP700028
Sequence (Q16769 29-361): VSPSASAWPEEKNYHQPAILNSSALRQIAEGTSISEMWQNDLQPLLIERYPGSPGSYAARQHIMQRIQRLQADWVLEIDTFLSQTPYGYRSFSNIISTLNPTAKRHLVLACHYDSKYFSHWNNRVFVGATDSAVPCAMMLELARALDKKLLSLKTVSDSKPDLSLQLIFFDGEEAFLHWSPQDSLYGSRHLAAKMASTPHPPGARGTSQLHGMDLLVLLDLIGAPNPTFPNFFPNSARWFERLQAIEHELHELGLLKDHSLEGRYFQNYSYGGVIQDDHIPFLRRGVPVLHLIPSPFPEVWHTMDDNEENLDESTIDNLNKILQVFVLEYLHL
assay_protocol: Assay A: biochemical QPCT activity assay (MALDI-TOF MS, CD47 peptide substrate)
experimental_context: Table 2, compounds of the invention, read-out: Inhibition of QPCT: IC50
pIC50: −log10 of the molar value.

substance_smiles: Cc1ncc(-c2cc(C#N)c(N3CCC(F)(c4nncn4C)CC3)c(-c3cnc4nn(C(F)(F)F)cc4c3)n2)o1
tested_on: QPCT (Homo sapiens, UniProt Q16769)
pIC50: 8.70

substance_smiles: Cc1nn(C)cc1-c1cc(C#N)c(N2CCC(F)(c3nncn3C)CC2)c(-c2cnc3nn(C(F)(F)F)cc3c2)n1
tested_on: QPCT (Homo sapiens, UniProt Q16769)
pIC50: 8.70

substance_smiles: Cn1cnnc1C1(F)CCN(c2c(C#N)cc(C(F)(F)F)nc2-c2cnc3nn(C(C)(C)C)c(C(F)F)c3c2)CC1
tested_on: QPCT (Homo sapiens, UniProt Q16769)
pIC50: 9.00

substance_smiles: Cc1ncc(-c2cc(C#N)c(N3CCC(F)(c4nncn4C)CC3)c(-c3cnc4nn(C(F)(F)F)cc4c3)n2)cn1
tested_on: QPCT (Homo sapiens, UniProt Q16769)
pIC50: 8.52

substance_smiles: Cc1cc(-c2nc(C3CC3)cc(C#N)c2N2CCC(F)(c3nncn3C)CC2)cnn1
tested_on: QPCT (Homo sapiens, UniProt Q16769)
pIC50: 7.85

substance_smiles: Cn1cnnc1C1(F)CCN(c2c(C#N)cc(C(F)(F)F)nc2-c2cnc3nn(C(C)(C)C)c(C4CC4)c3c2)CC1
tested_on: QPCT (Homo sapiens, UniProt Q16769)
pIC50: 9.00

substance_smiles: Cn1cnnc1C1(F)CCN(c2c(C#N)cc(-c3cnc(C(F)(F)F)nc3)nc2-c2cnc3nn(C(F)(F)F)cc3c2)CC1
tested_on: QPCT (Homo sapiens, UniProt Q16769)
pIC50: 9.00

----------
tested_on: QPCTL (Homo sapiens)
Construct: made in house
assay_protocol: Assay A: biochemical QPCTL activity assay (MALDI-TOF MS, CD47 peptide substrate)
experimental_context: Table 2, compounds of the invention, read-out: Inhibition of QPCTL: IC50
Items are presented alongside their recorded IC50.

substance_smiles: Cn1cnnc1C1(F)CCN(c2c(C#N)cc(C3CC3)nc2-c2cnc3nn(C(F)(F)F)cc3c2)CC1
IC50 [nM]: 1

substance_smiles: Cn1cnnc1C1(F)CCN(c2c(C#N)cc(C(F)(F)F)nc2-c2cnc3nn(C(C)(C)C)c(C4CC4)c3c2)CC1
IC50 [nM]: 1

substance_smiles: Cc1cc(C#N)c(N2CCC(F)(c3nncn3C)CC2)c(-c2cnc3nn(C(F)(F)F)cc3c2)n1
IC50 [nM]: 1

substance_smiles: Cc1nn(C)cc1-c1cc(C#N)c(N2CCC(F)(c3nncn3C)CC2)c(-c2cnc3nn(C(F)(F)F)cc3c2)n1
IC50 [nM]: 2

substance_smiles: Cn1cnnc1C1(F)CCN(c2c(C#N)cc(C(F)(F)F)nc2-c2cnc3nn(C(C)(C)C)cc3c2C(F)F)CC1
IC50 [nM]: 12

substance_smiles: Cn1cnnc1C1(F)CCN(c2c(C#N)cc(C3CC3)nc2-c2cnc3nn(C)c(C(F)(F)F)c3c2)CC1
IC50 [nM]: 3

substance_smiles: Cn1cnnc1C1(F)CCN(c2c(C#N)cc(-c3cnc(C(F)(F)F)nc3)nc2-c2cnc3nn(C(F)(F)F)cc3c2)CC1
IC50 [nM]: 2

----------
Items are presented alongside their recorded IC50.
tested_on: QPCT (Homo sapiens, UniProt Q16769)
Construct: purchased Origine (OriGene) TP700028
assay_protocol: Assay A: biochemical QPCT activity assay (MALDI-TOF MS, CD47 peptide substrate)
experimental_context: Table 3, prior art compounds, read-out: Inhibition of QPCT: IC50
outcome_measure: IC50 (µM)

compound: Cn1cnnc1C1CCN(c2c(C#N)cccc2-c2cncc3c2cnn3C)CC1 [Compound 4, reference compound]
outcome_measure: IC50
result_number: 0.313

compound: Cn1cc2c(-c3cccc(C#N)c3N3CCC(c4nncn4C)CC3)cncc2n1 [Compound 16, reference compound]
outcome_measure: IC50
result_number: 0.024

compound: COc1ccc(-c2ccnnc2)c(N2CCC(c3nncn3C)CC2)c1C#N [Compound 26, reference compound]
outcome_measure: IC50
result_number: 0.002

----------
tested_on: QPCTL (Homo sapiens, UniProt Q9NXS2)
Construct: made in house
Sequence (Q9NXS2 whole entry, species assumed): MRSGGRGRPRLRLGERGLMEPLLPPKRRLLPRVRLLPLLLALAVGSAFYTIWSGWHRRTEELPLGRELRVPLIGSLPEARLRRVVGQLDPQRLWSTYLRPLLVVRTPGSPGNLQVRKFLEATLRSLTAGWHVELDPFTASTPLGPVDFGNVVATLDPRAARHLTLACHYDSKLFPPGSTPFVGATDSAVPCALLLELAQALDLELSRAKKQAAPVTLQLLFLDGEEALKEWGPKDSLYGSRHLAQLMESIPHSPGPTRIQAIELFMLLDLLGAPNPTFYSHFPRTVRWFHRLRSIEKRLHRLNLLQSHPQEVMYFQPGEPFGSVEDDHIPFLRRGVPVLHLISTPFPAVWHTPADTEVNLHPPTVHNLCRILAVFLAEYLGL
assay_protocol: Assay A: biochemical QPCTL activity assay (MALDI-TOF MS, CD47 peptide substrate)
experimental_context: Table 3, prior art compounds, read-out: Inhibition of QPCTL: IC50
With a cut-off of 100 nM, any IC50 strictly below it is called met; any IC50 meeting it or above is called not met.

molecule: COc1ccc(-c2ccnnc2)c(N2CCC(c3nncn3C)CC2)c1C#N [Compound 26, reference compound]
answer_label: met
//
molecule: Cn1cnnc1C1CCN(c2c(C#N)cccc2-c2ccc3ocnc3c2)CC1 [Compound 15, reference compound]
answer_label: not met
//
molecule: Cn1cnnc1C1CCN(c2c(-c3ccnnc3)ccc(Cl)c2C#N)CC1 [Compound 33, reference compound]
answer_label: met
//
molecule: COc1ccc(-c2cnc3nccn3c2)c(N2CCC(c3nncn3C)CC2)c1C#N [Compound 94, reference compound]
answer_label: met
//
molecule: Cn1cc2c(-c3cccc(C#N)c3N3CCC(c4nncn4C)CC3)cncc2n1 [Compound 16, reference compound]
answer_label: met
//
molecule: Cn1cnnc1C1CCN(c2c(C#N)cccc2-c2cnc3[nH]nc(O)c3c2)CC1 [Compound 113, reference compound]
answer_label: not met
//
molecule: Cn1cnnc1C1CCN(c2c(C#N)cccc2-c2cnc3cn[nH]c3c2)CC1 [Compound 125, reference compound]
answer_label: not met
//
molecule: Cn1cnnc1C1CCN(c2c(C#N)cccc2-c2ccc3nonc3c2)CC1 [Compound 19, reference compound]
answer_label: not met
//
molecule: Cn1cnnc1C1CCN(c2c(C#N)cccc2-c2cnc3nccn3c2)CC1 [Compound 93, reference compound]
answer_label: met

----------
Items are presented alongside their recorded pIC50.
Test system: SIRPα signalling induced by A549 cells
assay_protocol: Assay B: SIRPα signalling assay using A549 cells
Assay type: cell-based
experimental_context: Homo sapiens, Table 4, compounds of the invention, read-out: Inhibition of SIRPα signalling induced by A549 cells: IC50
pIC50: −log10 of the molar value.

substance_smiles: Cn1cnnc1C1(F)CCN(c2c(C#N)cc(C(F)(F)F)nc2-c2cnc3nn(C(C)(C)C)c(C(F)F)c3c2)CC1
tested_on: SIRPα signalling induced by A549 cells
pIC50: 7.77
//
substance_smiles: Cc1ncc(-c2cc(C#N)c(N3CCC(F)(c4nncn4C)CC3)c(-c3cnc4nn(C(F)(F)F)cc4c3)n2)o1
tested_on: SIRPα signalling induced by A549 cells
pIC50: 7.60
//
substance_smiles: Cn1cnnc1C1(F)CCN(c2c(C#N)cc(C(F)(F)F)nc2-c2cnc3nn(C(C)(C)C)c(C4CC4)c3c2)CC1
tested_on: SIRPα signalling induced by A549 cells
pIC50: 7.96
//
substance_smiles: Cn1cnnc1C1(F)CCN(c2c(C#N)cc(C(F)(F)F)nc2-c2cnc3nn(C(C)(C)C)cc3c2C(F)F)CC1
tested_on: SIRPα signalling induced by A549 cells
pIC50: 9.00
//
substance_smiles: Cc1nn(C)cc1-c1cc(C#N)c(N2CCC(F)(c3nncn3C)CC2)c(-c2cnc3nn(C(F)(F)F)cc3c2)n1
tested_on: SIRPα signalling induced by A549 cells
pIC50: 7.66
//
substance_smiles: Cn1cnnc1C1(F)CCN(c2c(C#N)cc(C(C)(F)F)nc2-c2cnc3nn(C)c(C(F)(F)F)c3c2)CC1
tested_on: SIRPα signalling induced by A549 cells
pIC50: 7.85
//
substance_smiles: Cc1ccc(-c2cc(C#N)c(N3CCC(F)(c4nncn4C)CC3)c(-c3cnc4nn(C(F)(F)F)cc4c3)n2)cn1
tested_on: SIRPα signalling induced by A549 cells
pIC50: 7.77

----------
assay_protocol: Assay C: permeability in CACO-2 cells
Format: in vitro ADME
experimental_context: human, pH 7.2; Table 7, compounds of the invention, CACO-2 cells
Items are presented alongside their recorded Papp A→B.

molecule: Cn1cnnc1C1(F)CCN(c2c(C#N)cc(C3CC3)nc2-c2cnc3nn(C(F)(F)F)cc3c2)CC1 [Example 2]
Papp A→B [×10⁻⁶ cm/s]: 37
--
molecule: Cn1cnnc1C1(F)CCN(c2c(C#N)cc(C(C)(F)F)nc2-c2cnc3nn(C)c(C(F)(F)F)c3c2)CC1 [Example 9]
Papp A→B [×10⁻⁶ cm/s]: 14
--
molecule: Cn1cnnc1C1(F)CCN(c2c(C#N)cc(C(F)(F)F)nc2-c2cnc3nn(C)c(C(F)(F)F)c3c2)CC1 [Example 10]
Papp A→B [×10⁻⁶ cm/s]: 11
--
molecule: Cn1cnnc1C1(F)CCN(c2c(C#N)cc(C(F)(F)F)nc2-c2cnc3nn(C(C)(C)C)c(C4CC4)c3c2)CC1 [Example 26]
Papp A→B [×10⁻⁶ cm/s]: 17
--
molecule: Cn1cnnc1C1(F)CCN(c2c(C#N)cc(C(F)(F)F)nc2-c2cnc3nn(C(C)(C)C)cc3c2C(F)F)CC1 [Example 15]
Papp A→B [×10⁻⁶ cm/s]: 7.6
--
molecule: Cc1cc(C#N)c(N2CCC(F)(c3nncn3C)CC2)c(-c2cnc3nn(C(F)(F)F)cc3c2)n1 [Example 5]
Papp A→B [×10⁻⁶ cm/s]: 3.3
--
molecule: Cc1nn(C)c(C)c1-c1cc(C#N)c(N2CCC(F)(c3nncn3C)CC2)c(-c2cnc3nn(C(F)(F)F)cc3c2)n1 [Example 23]
Papp A→B [×10⁻⁶ cm/s]: 4.1
--
molecule: Cc1ncc(-c2cc(C#N)c(N3CCC(F)(c4nncn4C)CC3)c(-c3cnc4nn(C(F)(F)F)cc4c3)n2)o1 [Example 19]
Papp A→B [×10⁻⁶ cm/s]: 8.1
--
molecule: Cn1cnnc1C1(F)CCN(c2c(C#N)cc(C(C)(F)F)nc2-c2cnc3nn(C(F)(F)F)cc3c2)CC1 [Example 3]
Papp A→B [×10⁻⁶ cm/s]: 11
--
molecule: Cn1cnnc1C1(F)CCN(c2c(C#N)cc(C(F)(F)F)nc2-c2cc3cn(C(C)(C)C)nc3nc2C(F)F)CC1 [Example 14]
Papp A→B [×10⁻⁶ cm/s]: 14
--
molecule: Cn1cnnc1C1(F)CCN(c2c(C#N)cc(-c3ccc(F)cc3)nc2-c2ccnnc2)CC1 [Example 18]
Papp A→B [×10⁻⁶ cm/s]: 2.3
--
molecule: Cn1cnnc1C1(F)CCN(c2c(C#N)cc(C3CC3)nc2-c2cnc3nn(C)c(C(F)(F)F)c3c2)CC1 [Example 11]
Papp A→B [×10⁻⁶ cm/s]: 32
--
molecule: Cn1cc(-c2cc(C#N)c(N3CCC(F)(c4nncn4C)CC3)c(-c3cnc4nn(C(F)(F)F)cc4c3)n2)cn1 [Example 24]
Papp A→B [×10⁻⁶ cm/s]: 3.4
--
molecule: Cc1ncc(-c2cc(C#N)c(N3CCC(F)(c4nncn4C)CC3)c(-c3cnc4nn(C(F)(F)F)cc4c3)n2)cn1 [Example 25]
Papp A→B [×10⁻⁶ cm/s]: 3.1
--
molecule: Cc1cc(-c2nc(C3CC3)cc(C#N)c2N2CCC(F)(c3nncn3C)CC2)cnn1 [Example 12]
Papp A→B [×10⁻⁶ cm/s]: 5.6
